All values here come from ChEMBL document CHEMBL6120977.

experiment: Biodistribution in male ddY mouse lung administered intravenously and measured at 60 mins postinjection by gamma counter analysis; type: ADME, organism-based; settings: in vivo, iv, 1 h
reported-endpoint: Drug uptake (% ID/g)
Numbers only, in % ID/g.

C[C@H]1CN(c2nc3ccc(F)cc3s2)CCCN1C(=O)c1cc([18F])ccc1-n1nccn1    0.61
Cc1ccc(-n2nccn2)c(C(=O)N2CCCN(c3nc4ccc([18F])cc4s3)C[C@@H]2C)c1    0.48
C[C@H]1CN(c2nc3ccccc3s2)CCCN1C(=O)c1cc([18F])ccc1-n1nccn1    1.17

Moving on to the next compound.
QUERY: Value lookup for Drug uptake; key = Cc1ccc(-n2nccn2)c(C(=O)N2CCCN(c3nc4cc([18F])ccc4s3)C[C@@H]2C)c1
RESULT: 0.7

----------
experiment: Biodistribution in male ddY mouse kidney administered intravenously and measured at 10 mins postinjection by gamma counter analysis; format: ADME, organism-based; conditions: in vivo, iv
reported-endpoint: Drug uptake (% ID/g)
Answers are plain numbers, in % ID/g.

C[C@H]1CN(c2nc3ccccc3s2)CCCN1C(=O)c1cc([18F])ccc1-n1nccn1    4.99
Cc1ccc(-n2nccn2)c(C(=O)N2CCCN(c3nc4ccc([18F])cc4s3)C[C@@H]2C)c1    5.23
Cc1ccc(-n2nccn2)c(C(=O)N2CCCN(c3nc4cc([18F])ccc4s3)C[C@@H]2C)c1    7.95

Next, consider the following compound.
QUERY: Recorded Drug uptake of C[C@H]1CN(c2nc3ccc(F)cc3s2)CCCN1C(=O)c1cc([18F])ccc1-n1nccn1 , please.
RESULT: 4.37

----------
Record form. Attribute: Drug uptake. Fill in for each entry.
experiment: Biodistribution in male ddY mouse brain administered intravenously and measured at 60 mins postinjection by gamma counter analysis; assay type: ADME, organism-based; conditions: in vivo, iv, 1 h
Numbers only, in % ID/g.

Use these answered entries as a reference point.
C[C@H]1CN(c2nc3ccccc3s2)CCCN1C(=O)c1cc([18F])ccc1-n1nccn1    0.07
Cc1ccc(-n2nccn2)c(C(=O)N2CCCN(c3nc4cc([18F])ccc4s3)C[C@@H]2C)c1    0.15
Cc1ccc(-n2nccn2)c(C(=O)N2CCCN(c3nc4ccc([18F])cc4s3)C[C@@H]2C)c1    0.11

Here is another compound to look at.
QUERY: Need Drug uptake of C[C@H]1CN(c2nc3ccc(F)cc3s2)CCCN1C(=O)c1cc([18F])ccc1-n1nccn1 , thanks.
RESULT: 0.09

----------
test: Biodistribution in male ddY mouse blood administered intravenously and measured at 2 mins postinjection by gamma counter analysis; assay type: ADME, organism-based; details: in vivo, iv
reported-endpoint: Drug uptake (% ID/g)
Answers are plain numbers, in % ID/g.

Cc1ccc(-n2nccn2)c(C(=O)N2CCCN(c3nc4cc([18F])ccc4s3)C[C@@H]2C)c1    4.74
C[C@H]1CN(c2nc3ccccc3s2)CCCN1C(=O)c1cc([18F])ccc1-n1nccn1    6.02
Cc1ccc(-n2nccn2)c(C(=O)N2CCCN(c3nc4ccc([18F])cc4s3)C[C@@H]2C)c1    4.44

Now for another entry.
QUERY: Looking for the measured Drug uptake of C[C@H]1CN(c2nc3ccc(F)cc3s2)CCCN1C(=O)c1cc([18F])ccc1-n1nccn1 , can you help?
RESULT: 4.79

----------
Would you mind telling me the reported Drug uptake of each entry?
assay: Biodistribution in male ddY mouse stomach administered intravenously and measured per organ at 10 mins postinjection by gamma counter analysis; assay type: ADME, organism-based; conditions: in vivo, iv
Numbers only, in %ID.

// known answers, use as guide
C[C@H]1CN(c2nc3ccccc3s2)CCCN1C(=O)c1cc([18F])ccc1-n1nccn1    2.16
Cc1ccc(-n2nccn2)c(C(=O)N2CCCN(c3nc4ccc([18F])cc4s3)C[C@@H]2C)c1    1.65
Cc1ccc(-n2nccn2)c(C(=O)N2CCCN(c3nc4cc([18F])ccc4s3)C[C@@H]2C)c1    4.17

As a next step, examine the compound that follows.
QUERY: Item C[C@H]1CN(c2nc3ccc(F)cc3s2)CCCN1C(=O)c1cc([18F])ccc1-n1nccn1 has what recorded Drug uptake?
RESULT: 0.98

----------
assay: Selectivity ratio of Ki for OX2R (unknown origin) transfected in CHO cells to Ki for OX1R (unknown origin) transfected in CHO cells; format: cell-based
Would you kindly list Ratio Ki for each of these molecules?
Answers are plain numbers.

C[C@H]1CN(c2nc3ccc(F)cc3s2)CCCN1C(=O)c1cc(C(F)(F)F)ccc1-n1nccn1    2.85
C[C@H]1CN(c2nc3ccc(F)cc3s2)CCCN1C(=O)c1ccccc1-n1nccn1    8.08
Cc1ccc(-n2nccn2)c(C(=O)N2CCCN(c3nc4ccc(F)cc4s3)C[C@@H]2C)c1    9.63
Cc1ccc2nc(N3CCCN(C(=O)c4cc(F)ccc4-n4nccn4)[C@@H](C)C3)sc2c1    3.5
Cc1ccc(-n2nccn2)c(C(=O)N2CCCN(c3nc4cc(F)ccc4o3)C[C@@H]2C)c1    3.68

For each of the items listed, what is its Ratio Ki?
1. C[C@H]1CN(c2nc3ccc(F)cc3s2)CCCN1C(=O)c1cc(F)ccc1-n1nccn1
2. C[C@H]1CN(c2nc3ccccc3s2)CCCN1C(=O)c1cc(F)ccc1-n1nccn1
3. Cc1ccc(-n2nccn2)c(C(=O)N2CCCN(c3nc4ccc(F)cc4o3)C[C@@H]2C)c1
4. Cc1ccc(-n2nccn2)c(C(=O)N2CCCN(c3nc4cc(Cl)ccc4o3)C[C@@H]2C)c1

RESULT:
[8.19, 26.9, 8.8, 8.71]

QUERY: Ratio Ki for Cc1ccc(-n2nccn2)c(C(=O)N2CCCN(c3nc4cc(F)ccc4s3)C[C@@H]2C)c1 ?
RESULT: 11.3

----------
experiment: Biodistribution in male ddY mouse heart administered intravenously and measured at 2 mins postinjection by gamma counter analysis; format: ADME, organism-based; settings: in vivo, iv
Assign Drug uptake to each entry below.
Give bare numbers, in % ID/g.

// below: answered compounds
C[C@H]1CN(c2nc3ccc(F)cc3s2)CCCN1C(=O)c1cc([18F])ccc1-n1nccn1    6.04
Cc1ccc(-n2nccn2)c(C(=O)N2CCCN(c3nc4ccc([18F])cc4s3)C[C@@H]2C)c1    7.6
Cc1ccc(-n2nccn2)c(C(=O)N2CCCN(c3nc4cc([18F])ccc4s3)C[C@@H]2C)c1    9.03

QUERY: Would you mind telling me what Drug uptake value was observed for C[C@H]1CN(c2nc3ccccc3s2)CCCN1C(=O)c1cc([18F])ccc1-n1nccn1 ?
RESULT: 7.48

----------
test: Biodistribution in male ddY mouse liver administered intravenously and measured at 10 mins postinjection by gamma counter analysis; type: ADME, organism-based; conditions: in vivo, iv
Give Drug uptake for every item shown.
One number for each entry, in % ID/g.

Examples with their reported Drug uptake follow.
C[C@H]1CN(c2nc3ccccc3s2)CCCN1C(=O)c1cc([18F])ccc1-n1nccn1    28.6
C[C@H]1CN(c2nc3ccc(F)cc3s2)CCCN1C(=O)c1cc([18F])ccc1-n1nccn1    27.5
Cc1ccc(-n2nccn2)c(C(=O)N2CCCN(c3nc4ccc([18F])cc4s3)C[C@@H]2C)c1    26.9

Kindly review the next compound as well.
QUERY: // Drug uptake lookup, key: Cc1ccc(-n2nccn2)c(C(=O)N2CCCN(c3nc4cc([18F])ccc4s3)C[C@@H]2C)c1
RESULT: 30.6

----------
Please respond with reported Drug uptake for every item in the list.
test: Biodistribution in male ddY mouse pancreas administered intravenously and measured at 30 mins postinjection by gamma counter analysis; type: ADME, organism-based; conditions: in vivo, iv, 0.5 h
Numbers only, in % ID/g.

Please review the entries below; each comes with its answer.
Cc1ccc(-n2nccn2)c(C(=O)N2CCCN(c3nc4ccc([18F])cc4s3)C[C@@H]2C)c1    0.67
C[C@H]1CN(c2nc3ccccc3s2)CCCN1C(=O)c1cc([18F])ccc1-n1nccn1    0.92
Cc1ccc(-n2nccn2)c(C(=O)N2CCCN(c3nc4cc([18F])ccc4s3)C[C@@H]2C)c1    1.47

Attention now shifts to the item below.
QUERY: What does the record list as Drug uptake for C[C@H]1CN(c2nc3ccc(F)cc3s2)CCCN1C(=O)c1cc([18F])ccc1-n1nccn1 ?
RESULT: 0.56

----------
Hi there, I'd appreciate the recorded Drug uptake for every entry that follows.
assay: Biodistribution in male ddY mouse heart administered intravenously and measured at 10 mins postinjection by gamma counter analysis; type: ADME, organism-based; settings: in vivo, iv

Cc1ccc(-n2nccn2)c(C(=O)N2CCCN(c3nc4ccc([18F])cc4s3)C[C@@H]2C)c1    3.11 % ID/g
C[C@H]1CN(c2nc3ccccc3s2)CCCN1C(=O)c1cc([18F])ccc1-n1nccn1    3.02 % ID/g
Cc1ccc(-n2nccn2)c(C(=O)N2CCCN(c3nc4cc([18F])ccc4s3)C[C@@H]2C)c1    10.2 % ID/g

QUERY: For C[C@H]1CN(c2nc3ccc(F)cc3s2)CCCN1C(=O)c1cc([18F])ccc1-n1nccn1 , what is its reported Drug uptake?
RESULT: 2.48 % ID/g
